Listed below: pIC50 values for each entry.
- System: MDA-MB-231
- ASSAY_COMMENT: Cytotoxicity against human MDA-MB-231 cells after 72 hrs by SRB assay
- Assay type: functional, cell-based
pIC50: −log10 of the molar value.

>  <COMPOUND>
CC[C@@]1(OC(=O)CN/C(CCOC2CC(C)(C)N([O])C(C)(C)C2)=N/S(=O)(=O)CC)C(=O)OCc2c1cc1n(c2=O)Cc2cc3ccccc3nc2-1

>  <EXPERIMENTAL_SYSTEM>
MDA-MB-231

>  <RESULT_COMPARATOR>
=

>  <pIC50>
7.10

$$$$
>  <COMPOUND>
CC[C@@]1(OC(=O)[C@@H](C)N/C(CCOC2CC(C)(C)N([O])C(C)(C)C2)=N/S(=O)(=O)c2ccc(C)cc2)C(=O)OCc2c1cc1n(c2=O)Cc2cc3ccccc3nc2-1

>  <EXPERIMENTAL_SYSTEM>
MDA-MB-231

>  <RESULT_COMPARATOR>
=

>  <pIC50>
6.28

$$$$
>  <COMPOUND>
CC[C@@]1(OC(=O)[C@H](N/C(CCOC2CC(C)(C)N([O])C(C)(C)C2)=N/S(=O)(=O)c2ccc(C)cc2)C(C)C)C(=O)OCc2c1cc1n(c2=O)Cc2cc3ccccc3nc2-1

>  <EXPERIMENTAL_SYSTEM>
MDA-MB-231

>  <RESULT_COMPARATOR>
<

>  <pIC50>
6.00

$$$$
>  <COMPOUND>
CC[C@@]1(OC(=O)[C@@H](CC(C)C)N/C(CCOC2CC(C)(C)N([O])C(C)(C)C2)=N/S(=O)(=O)c2ccc(C)cc2)C(=O)OCc2c1cc1n(c2=O)Cc2cc3ccccc3nc2-1

>  <EXPERIMENTAL_SYSTEM>
MDA-MB-231

>  <RESULT_COMPARATOR>
=

>  <pIC50>
6.08

$$$$
>  <COMPOUND>
CC[C@@]1(OC(=O)CN/C(CCOC2CC(C)(C)N([O])C(C)(C)C2)=N/S(=O)(=O)c2ccc(Cl)cc2)C(=O)OCc2c1cc1n(c2=O)Cc2cc3ccccc3nc2-1

>  <EXPERIMENTAL_SYSTEM>
MDA-MB-231

>  <RESULT_COMPARATOR>
=

>  <pIC50>
6.72

$$$$
>  <COMPOUND>
CC[C@@]1(OC(=O)CN/C(CCOC2CC(C)(C)N([O])C(C)(C)C2)=N/S(C)(=O)=O)C(=O)OCc2c1cc1n(c2=O)Cc2cc3ccccc3nc2-1

>  <EXPERIMENTAL_SYSTEM>
MDA-MB-231

>  <RESULT_COMPARATOR>
=

>  <pIC50>
6.96

$$$$
>  <COMPOUND>
CC[C@@]1(OC(=O)CN/C(CCOC2CC(C)(C)N([O])C(C)(C)C2)=N/S(=O)(=O)c2ccc(C)cc2)C(=O)OCc2c1cc1n(c2=O)Cc2cc3ccccc3nc2-1

>  <EXPERIMENTAL_SYSTEM>
MDA-MB-231

>  <RESULT_COMPARATOR>
=

>  <pIC50>
6.35

$$$$
>  <COMPOUND>
CC[C@@]1(OC(=O)CN/C(CCOC2CC(C)(C)N([O])C(C)(C)C2)=N/S(=O)(=O)c2ccc(F)cc2)C(=O)OCc2c1cc1n(c2=O)Cc2cc3ccccc3nc2-1

>  <EXPERIMENTAL_SYSTEM>
MDA-MB-231

>  <RESULT_COMPARATOR>
=

>  <pIC50>
6.57

$$$$
>  <COMPOUND>
CC[C@@]1(OC(=O)CN/C(CCOCC2CC(C)(C)N([O])C(C)(C)C2)=N/S(=O)(=O)c2ccc(C)cc2)C(=O)OCc2c1cc1n(c2=O)Cc2cc3ccccc3nc2-1

>  <EXPERIMENTAL_SYSTEM>
MDA-MB-231

>  <RESULT_COMPARATOR>
=

>  <pIC50>
7.04

$$$$
>  <COMPOUND>
CC[C@@]1(OC(=O)CN/C(CCOCC2=CC(C)(C)N([O])C2(C)C)=N/S(=O)(=O)c2ccc(OC)cc2)C(=O)OCc2c1cc1n(c2=O)Cc2cc3ccccc3nc2-1

>  <EXPERIMENTAL_SYSTEM>
MDA-MB-231

>  <RESULT_COMPARATOR>
=

>  <pIC50>
6.74

$$$$
>  <COMPOUND>
CC[C@@]1(OC(=O)[C@@H](Cc2ccccc2)N/C(CCOC2CC(C)(C)N([O])C(C)(C)C2)=N/S(=O)(=O)c2ccc(C)cc2)C(=O)OCc2c1cc1n(c2=O)Cc2cc3ccccc3nc2-1

>  <EXPERIMENTAL_SYSTEM>
MDA-MB-231

>  <RESULT_COMPARATOR>
=

>  <pIC50>
6.30

$$$$
>  <COMPOUND>
CC[C@@]1(OC(=O)CN/C(CCOC2CC(C)(C)N([O])C(C)(C)C2)=N/S(=O)(=O)c2ccc3ccccc3c2)C(=O)OCc2c1cc1n(c2=O)Cc2cc3ccccc3nc2-1

>  <EXPERIMENTAL_SYSTEM>
MDA-MB-231

>  <RESULT_COMPARATOR>
=

>  <pIC50>
6.21

$$$$
>  <COMPOUND>
CC[C@@]1(OC(=O)CN/C(CCOC2CC(C)(C)N([O])C(C)(C)C2)=N/S(=O)(=O)c2ccc(OC)cc2)C(=O)OCc2c1cc1n(c2=O)Cc2cc3ccccc3nc2-1

>  <EXPERIMENTAL_SYSTEM>
MDA-MB-231

>  <RESULT_COMPARATOR>
=

>  <pIC50>
6.57

$$$$
>  <COMPOUND>
CC[C@@]1(OC(=O)CN/C(CCOC2CC(C)(C)N([O])C(C)(C)C2)=N/S(=O)(=O)c2cccs2)C(=O)OCc2c1cc1n(c2=O)Cc2cc3ccccc3nc2-1

>  <EXPERIMENTAL_SYSTEM>
MDA-MB-231

>  <RESULT_COMPARATOR>
=

>  <pIC50>
6.96

$$$$
>  <COMPOUND>
CC[C@@]1(OC(=O)CN/C(CCOCC2=CC(C)(C)N([O])C2(C)C)=N/S(=O)(=O)c2ccc(F)cc2)C(=O)OCc2c1cc1n(c2=O)Cc2cc3ccccc3nc2-1

>  <EXPERIMENTAL_SYSTEM>
MDA-MB-231

>  <RESULT_COMPARATOR>
=

>  <pIC50>
6.85

$$$$
>  <COMPOUND>
CC[C@@]1(OC(=O)CN/C(CCOCC2=CC(C)(C)N([O])C2(C)C)=N/S(=O)(=O)c2ccc(C)cc2)C(=O)OCc2c1cc1n(c2=O)Cc2cc3ccccc3nc2-1

>  <EXPERIMENTAL_SYSTEM>
MDA-MB-231

>  <RESULT_COMPARATOR>
=

>  <pIC50>
6.92

$$$$
>  <COMPOUND>
CCC(C)[C@@H](N/C(CCOC1CC(C)(C)N([O])C(C)(C)C1)=N/S(=O)(=O)c1ccc(C)cc1)C(=O)O[C@]1(CC)C(=O)OCc2c1cc1n(c2=O)Cc2cc3ccccc3nc2-1 (stereo not given in full)

>  <EXPERIMENTAL_SYSTEM>
MDA-MB-231

>  <RESULT_COMPARATOR>
<

>  <pIC50>
6.00

$$$$
>  <COMPOUND>
CC[C@@]1(OC(=O)CN/C(CCOCC2=CC(C)(C)N([O])C2(C)C)=N/S(C)(=O)=O)C(=O)OCc2c1cc1n(c2=O)Cc2cc3ccccc3nc2-1

>  <EXPERIMENTAL_SYSTEM>
MDA-MB-231

>  <RESULT_COMPARATOR>
=

>  <pIC50>
6.99

$$$$
>  <COMPOUND>
CCCCS(=O)(=O)/N=C(\CCOC1CC(C)(C)N([O])C(C)(C)C1)NCC(=O)O[C@]1(CC)C(=O)OCc2c1cc1n(c2=O)Cc2cc3ccccc3nc2-1

>  <EXPERIMENTAL_SYSTEM>
MDA-MB-231

>  <RESULT_COMPARATOR>
=

>  <pIC50>
6.64

$$$$
>  <COMPOUND>
CC[C@@]1(OC(=O)CN/C(CCOC2CC(C)(C)N([O])C(C)(C)C2)=N/S(=O)(=O)c2ccc([N+](=O)[O-])cc2)C(=O)OCc2c1cc1n(c2=O)Cc2cc3ccccc3nc2-1

>  <EXPERIMENTAL_SYSTEM>
MDA-MB-231

>  <RESULT_COMPARATOR>
=

>  <pIC50>
7.00

$$$$
